assay: Displacement of Thioflavin S from synthetic Tau 2N4R aggregate by fluorescence assay at 10 uM probe concentration
The source made the active and inactive calls. The rule behind the calls is not given here.
Can you answer with just one of these options? true (1) for active, false (0) for inactive

Chem Smiles | Category Label
N=C1C=CC(=C(c2ccc(N)cc2)c2ccc(N)cc2)C=C1 | true (1)
CN(C)c1ccc(C(=C2C=CC(=[N+](C)C)C=C2)c2ccc(N(C)C)cc2)cc1 | true (1)
CNc1ccc2nc3ccc(N(C)C)cc3[s+]c2c1 | false (0)

Could you now look at the following molecule, please?
# input Hey, what did the test say about "CN(C)c1ccc(C(=C2C=CC(=[N+](C)C)C=C2)c2ccccc2)cc1" ?
# output true (1)
